FYI, the data here is from paper PMC7999658.

EXPERIMENT DESCRIPTION: in vivo
ASSAY CONDITIONS: male, FVB, mouse, systemic (abdominal vein) plasma, po, 20 mg/kg
ASSAY READOUT: MRT (h)
The reply should be a number in h, with the unit left off.

Output MRT of CC(=O)O[C@H]1C(=O)[C@@]2(C)[C@H]([C@H](OC(=O)c3ccccc3)[C@]3(O)C[C@H](OC(=O)[C@H](O)[C@@H](NC(=O)c4ccccc4)c4ccccc4)C(C)=C1C3(C)C)[C@]1(OC(C)=O)CO[C@@H]1C[C@@H]2O
2.29

----------
ASSAY CONDITIONS: FVB, mouse, plasma (systemic circulation, abdominal vein), oral, 2 mg/kg, Csys of topotecan, topotecan 2 mg/kg po, mdr1a/1b KO mice
ASSAY READOUT: concentration at 30 min (nM)
// return numeric value only (unit: nM, not printed)

Give concentration at 30 min for CC[C@@]1(O)C(=O)OCc2c1cc1n(c2=O)Cc2cc3c(CN(C)C)c(O)ccc3nc2-1
207
